Reference source: patent US11505523B2

IC50, UniProt:Q9UBN7: measured values
Sequence (Q9UBN7 whole entry, species assumed): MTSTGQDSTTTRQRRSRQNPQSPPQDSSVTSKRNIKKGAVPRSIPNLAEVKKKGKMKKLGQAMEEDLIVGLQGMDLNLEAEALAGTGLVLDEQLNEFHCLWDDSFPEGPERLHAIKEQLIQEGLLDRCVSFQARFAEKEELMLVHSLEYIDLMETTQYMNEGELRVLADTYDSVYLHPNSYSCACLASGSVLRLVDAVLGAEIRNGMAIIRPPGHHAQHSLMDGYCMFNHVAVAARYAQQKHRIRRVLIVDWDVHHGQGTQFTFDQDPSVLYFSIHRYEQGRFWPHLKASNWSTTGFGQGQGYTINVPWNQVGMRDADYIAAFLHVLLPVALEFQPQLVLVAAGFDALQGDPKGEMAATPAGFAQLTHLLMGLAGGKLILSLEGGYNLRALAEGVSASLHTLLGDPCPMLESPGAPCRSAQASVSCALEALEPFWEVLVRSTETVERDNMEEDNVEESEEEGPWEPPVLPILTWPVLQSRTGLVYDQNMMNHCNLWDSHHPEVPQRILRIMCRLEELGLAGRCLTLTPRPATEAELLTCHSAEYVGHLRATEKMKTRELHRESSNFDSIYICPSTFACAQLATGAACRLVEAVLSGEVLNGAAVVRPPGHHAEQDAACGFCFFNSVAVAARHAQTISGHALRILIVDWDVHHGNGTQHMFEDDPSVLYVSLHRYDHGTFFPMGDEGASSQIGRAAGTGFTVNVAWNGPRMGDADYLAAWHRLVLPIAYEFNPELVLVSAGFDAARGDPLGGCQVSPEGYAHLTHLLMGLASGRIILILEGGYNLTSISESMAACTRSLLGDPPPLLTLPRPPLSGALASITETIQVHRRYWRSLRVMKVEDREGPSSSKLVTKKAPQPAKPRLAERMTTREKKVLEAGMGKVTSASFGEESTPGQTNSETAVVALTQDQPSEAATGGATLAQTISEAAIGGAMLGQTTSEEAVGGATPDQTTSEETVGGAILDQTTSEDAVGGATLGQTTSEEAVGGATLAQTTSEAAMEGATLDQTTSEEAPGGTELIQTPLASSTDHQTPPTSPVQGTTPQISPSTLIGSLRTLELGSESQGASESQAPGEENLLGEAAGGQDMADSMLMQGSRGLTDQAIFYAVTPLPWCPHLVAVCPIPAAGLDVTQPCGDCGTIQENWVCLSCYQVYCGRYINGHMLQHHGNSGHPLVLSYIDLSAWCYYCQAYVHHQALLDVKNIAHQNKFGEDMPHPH

COc1ccc(/C=C/C(=O)NO)c(-c2ccc(-c3ccccc3)cc2)c1 [Compound 22d]    > 0.02 µM

// next entry
What value of IC50 on UniProt:Q9UBN7 does COc1ccc(/C=C/C(=O)NO)c(-c2ccc(Br)cc2)c1 [Compound 22b] have? > 0.02 µM

---

- Assayed system: HDAC8 (Homo sapiens (Human), UniProt Q9BY41)
- Sequence (Q9BY41 whole entry): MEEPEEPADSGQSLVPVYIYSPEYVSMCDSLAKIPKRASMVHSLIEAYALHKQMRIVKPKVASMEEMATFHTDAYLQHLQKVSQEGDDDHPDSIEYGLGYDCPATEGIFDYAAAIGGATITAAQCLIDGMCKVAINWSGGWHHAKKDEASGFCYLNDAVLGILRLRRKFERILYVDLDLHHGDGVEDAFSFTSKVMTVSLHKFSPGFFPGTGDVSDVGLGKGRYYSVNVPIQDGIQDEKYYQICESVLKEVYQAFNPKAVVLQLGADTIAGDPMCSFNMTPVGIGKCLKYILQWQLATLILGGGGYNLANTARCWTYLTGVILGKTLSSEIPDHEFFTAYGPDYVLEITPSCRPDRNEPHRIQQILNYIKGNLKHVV
- Assay: Inhibition of HDAC8
- Type: biochemical
- Reported conditions: inhibition of HDAC8, relative potency (Tables 1-3)
Items are presented alongside their recorded IC50 PCI34051/IC50 compound.
Write the number on its own, no unit after it.

# count of solved cases: 4
COc1ccc(/C=C/C(=O)NO)c(-c2cncc3ccccc23)c1    0.28
COc1ccc(/C=C/C(=O)NO)c(-c2cccc(Cl)c2)c1    1.17
COc1ccc(/C=C/C(=O)NO)c(-c2cccs2)c1    1.43
COc1cc(Nc2ncccc2/C=C/C(=O)NO)cc(OC)c1OC    0.68

// next entry
// returns reported IC50 PCI34051/IC50 compound for input COc1ccc(/C=C/C(=O)NO)c(-c2cnc3ccccc3c2)c1 0.63
